These data points were gathered from ChEMBL document CHEMBL1127684.

Target: UniProtKB P33535
Assay: Inhibitory concentration was evaluated against mu opioid receptor by the displacement of tritiated DAMGO from rat brain membranes
Format: cell membranes, Membrane
MEASURE_NAME: log10 IC50 (log10 of the value in nM)
Parameter value (number): base-10 log of IC50 in nM.

COMPOUND	MEASURE_NAME	NUMBER
Cc1cc(O)cc(C)c1CC(C)(N)C(=O)N[C@H](C)C(=O)NCCCc1ccccc1 (stereo partly drawn)	log10 IC50	0.04

Required: log10 IC50, one value per compound below.
1. Cc1cc(O)cc(C)c1C[C@H](N)C(=O)N(CC1CC1)[C@H](C)C(=O)NCCCc1ccccc1 (stereo in doubt; 18b)
2. Cc1cc(OCc2ccccc2)cc(C)c1C[C@H](N)C(=O)N[C@H](C)C(=O)NCCCc1ccccc1
3. Cc1cc(O)cc(C)c1CC(N)C(=O)N[C@H](C)C(=O)NCCCc1ccccc1 (stereo partly drawn)
4. Cc1cc(O)cc(C)c1C[C@H](N)C(=O)N(C)[C@H](C)C(=O)NCCCc1ccccc1

Result:
1. -0.30
2. -0.04
3. -0.89
4. -0.70

---

Biological target: Kappa-type opioid receptor (Rattus norvegicus, UniProt P34975)
Sequence (P34975 whole entry): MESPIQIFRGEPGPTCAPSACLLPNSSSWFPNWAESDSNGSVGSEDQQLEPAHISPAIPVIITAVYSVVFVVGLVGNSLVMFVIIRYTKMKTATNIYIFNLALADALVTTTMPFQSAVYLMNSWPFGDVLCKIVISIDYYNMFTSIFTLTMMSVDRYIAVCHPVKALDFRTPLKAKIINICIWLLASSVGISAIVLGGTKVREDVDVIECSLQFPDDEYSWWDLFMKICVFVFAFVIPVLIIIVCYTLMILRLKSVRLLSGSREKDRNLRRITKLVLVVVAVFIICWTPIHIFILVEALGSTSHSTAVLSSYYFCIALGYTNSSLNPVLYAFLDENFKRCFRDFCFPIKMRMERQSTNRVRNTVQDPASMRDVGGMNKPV
Test: Inhibitory concentration was evaluated against kappa opioid receptor by displacement of tritiated U-69593 from rat brain membranes
I'd appreciate it if you could supply pIC50 values for the items below.
Give bare numbers, as −log10 of the molar value.

Check out these entries, answers already filled in.
MOLECULE	MEASURE_NAME	NUMBER
Cc1cc(O)cc(C)c1CC(N)C(=O)N[C@H](C)C(=O)NCCCc1ccccc1 (some centres undefined)	pIC50	6.66
COc1cc(C)c(C[C@H](N)C(=O)N[C@H](C)C(=O)NCCCc2ccccc2)c(C)c1 (stereo in doubt; 20b)	pIC50	4.70
Cc1cc(OCc2ccc(F)cc2)cc(C)c1CC(N)C(=O)N[C@H](C)C(=O)NCCCc1ccccc1 (some centres undefined)	pIC50	4.97

Now examine the next entry.
Problem: Any idea what its pIC50 is? The molecule is Cc1cc(OCc2ccccc2)cc(C)c1C[C@H](N)C(=O)N[C@H](C)C(=O)NCCCc1ccccc1
Result: 5.60

---

I'd appreciate it if you could supply log10 ED50 values for the items below.
Tested on: Mus musculus
Assay: Effective dose administered subcutaneously in mouse writhing assay
Format: functional
Settings: Mus musculus, sc; read-out: ED50
Parameter value (number): base-10 log of ED50 in mg/kg.

Check out these entries, answers already filled in.
COMPOUND	log10 ED50
C=CCN(C(=O)C(N)Cc1c(C)cc(O)cc1C)[C@H](C)C(=O)NCCCc1ccccc1 (some centres undefined)	-0.15
Cc1cc(OCc2ccc(F)cc2)cc(C)c1CC(N)C(=O)N[C@H](C)C(=O)NCCCc1ccccc1 (some centres undefined)	0.43
Cc1cc(O)cc(C)c1CC(N)C(=O)N[C@H](C)C(=O)NCCCc1ccccc1 (some centres undefined)	-0.30
COc1cc(C)c(CC(N)C(=O)N[C@H](C)C(=O)NCCCc2ccccc2)c(C)c1 (some centres undefined)	0.63
Cc1cc(OCc2ccccc2)cc(C)c1C[C@H](N)C(=O)N[C@H](C)C(=O)NCCCc1ccccc1	0.26
Cc1cc(O)cc(C)c1C[C@H](N)C(=O)N(C)[C@H](C)C(=O)NCCCc1ccccc1	-1.15

Required: log10 ED50, one value per compound below.
1. C=CCOc1cc(C)c(CC(N)C(=O)N[C@H](C)C(=O)NCCCc2ccccc2)c(C)c1 (some centres undefined)
2. Cc1cc(O)cc(C)c1CC(N)C(=O)N(C)[C@H](C)C(=O)NCCCc1ccccc1 (some centres undefined)

Result:
1. 1.09
2. 0.23

---

Target: Kappa-type opioid receptor (Rattus norvegicus, UniProt P34975)
Test: Inhibitory concentration was evaluated against kappa opioid receptor by displacement of tritiated U-69593 from rat brain membranes
MEASURE_NAME: IC50

MOLECULE	MEASURE_NAME	RESULT
Cc1cc(O)cc(C)c1C[C@H](N)C(=O)N(CC1CC1)[C@H](C)C(=O)NCCCc1ccccc1 (stereo in doubt; 18b)	IC50	1000 nM
Cc1cc(OCc2ccccc2)cc(C)c1C[C@@H](N)C(=O)N[C@H](C)C(=O)NCCCc1ccccc1	IC50	17500 nM
Cc1cc(O)cc(C)c1CC(C)(N)C(=O)N[C@H](C)C(=O)NCCCc1ccccc1 (some centres undefined)	IC50	1380 nM

Now examine the next entry.
Problem: Provide value of IC50 for this record tested with Kappa-type opioid receptor (Rattus norvegicus, UniProt P34975): Cc1cc(O)cc(C)c1C[C@H](N)C(=O)N(C)[C@H](C)C(=O)NCCCc1ccccc1
Result: 316 nM

---

Test system: Mus musculus
Assay: Effective dose administered subcutaneously in mouse writhing assay
Format: functional
Conditions: Mus musculus, sc; read-out: ED50
MEASURE_NAME: ED50 (mg/kg)
Answers are plain numbers, in mg/kg.

Check out these entries, answers already filled in.
MOLECULE	TARGET_OR_SYSTEM	SCALE_UNIT	NUMBER
Cc1cc(O)cc(C)c1CC(N)C(=O)N(CC1CC1)[C@H](C)C(=O)NCCCc1ccccc1 (stereo not given in full)	Mus musculus	mg/kg	2.4
Cc1cc(OCc2ccccc2)cc(C)c1C[C@@H](N)C(=O)N[C@H](C)C(=O)NCCCc1ccccc1	Mus musculus	mg/kg	2.3
Cc1cc(O)cc(C)c1C[C@H](N)C(=O)N(CC1CC1)[C@H](C)C(=O)NCCCc1ccccc1 (stereo in doubt; 18b)	Mus musculus	mg/kg	0.5
Cc1cc(O)cc(C)c1CC(C)(N)C(=O)N[C@H](C)C(=O)NCCCc1ccccc1 (stereo not given in full)	Mus musculus	mg/kg	3

Problem: Any idea what its ED50 is? The molecule is Cc1cc(OCc2ccc([N+](=O)[O-])cc2)cc(C)c1CC(N)C(=O)N[C@H](C)C(=O)NCCCc1ccccc1 (stereo not given in full)
Result: 2.3

---

Molecular target: Delta-type opioid receptor (Rattus norvegicus, UniProt P33533)
Sequence (P33533 whole entry): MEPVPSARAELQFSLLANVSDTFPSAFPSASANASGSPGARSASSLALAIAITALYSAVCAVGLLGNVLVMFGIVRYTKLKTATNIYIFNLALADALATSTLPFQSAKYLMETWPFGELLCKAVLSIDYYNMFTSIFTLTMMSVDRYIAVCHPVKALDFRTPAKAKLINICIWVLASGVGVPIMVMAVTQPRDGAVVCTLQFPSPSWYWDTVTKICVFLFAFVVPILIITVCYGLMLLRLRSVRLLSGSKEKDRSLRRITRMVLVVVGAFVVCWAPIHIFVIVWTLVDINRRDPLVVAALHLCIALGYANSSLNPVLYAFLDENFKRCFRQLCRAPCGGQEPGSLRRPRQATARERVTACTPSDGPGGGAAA
Test: Displacement of [3H]DSLET from rat brain membrane delta opioid receptor
I'd appreciate it if you could supply log10(IC50) values for the items below.
Parameter value (number): base-10 log of IC50 in nM.

Check out these entries, answers already filled in.
COMPOUND	TARGET_OR_SYSTEM	log10(IC50)
Cc1cc(OCc2ccc(F)cc2)cc(C)c1CC(N)C(=O)N[C@H](C)C(=O)NCCCc1ccccc1 (some centres not stated)	Delta-type opioid receptor (Rattus norvegicus, UniProt P33533)	2.59
Cc1cc(O)cc(C)c1C[C@H](N)C(=O)N(CC1CC1)[C@H](C)C(=O)NCCCc1ccccc1 (stereo in doubt; 18c)	Delta-type opioid receptor (Rattus norvegicus, UniProt P33533)	2.61
Cc1cc(OCc2ccccc2)cc(C)c1C[C@H](N)C(=O)N[C@H](C)C(=O)NCCCc1ccccc1	Delta-type opioid receptor (Rattus norvegicus, UniProt P33533)	1.74
Cc1cc(O)cc(C)c1C[C@H](N)C(=O)N(CC1CC1)[C@H](C)C(=O)NCCCc1ccccc1 (stereo in doubt; 18b)	Delta-type opioid receptor (Rattus norvegicus, UniProt P33533)	0.97
Cc1cc(O)cc(C)c1CC(C)(N)C(=O)N[C@H](C)C(=O)NCCCc1ccccc1 (some centres not stated)	Delta-type opioid receptor (Rattus norvegicus, UniProt P33533)	1.81

Required: log10(IC50), one value per compound below.
1. Cc1cc(OCc2ccc(C(=O)O)cc2)cc(C)c1CC(N)C(=O)N[C@H](C)C(=O)NCCCc1ccccc1 (some centres not stated)
2. Cc1cc(OCc2ccc([N+](=O)[O-])cc2)cc(C)c1CC(N)C(=O)N[C@H](C)C(=O)NCCCc1ccccc1 (some centres not stated)
3. C=CCOc1cc(C)c(CC(N)C(=O)N[C@H](C)C(=O)NCCCc2ccccc2)c(C)c1 (some centres not stated)
4. Cc1cc(O)cc(C)c1C[C@H](N)C(=O)N(C)[C@H](C)C(=O)NCCCc1ccccc1
5. Cc1cc(O)cc(C)c1CC(N)C(=O)N[C@H](C)C(=O)NCCCc1ccccc1 (some centres not stated)

Result:
1. 2.95
2. 2.10
3. 2.78
4. 0.64
5. 0.93

---

Target: Mu-type opioid receptor (Rattus norvegicus, UniProt P33535)
Sequence (P33535 whole entry): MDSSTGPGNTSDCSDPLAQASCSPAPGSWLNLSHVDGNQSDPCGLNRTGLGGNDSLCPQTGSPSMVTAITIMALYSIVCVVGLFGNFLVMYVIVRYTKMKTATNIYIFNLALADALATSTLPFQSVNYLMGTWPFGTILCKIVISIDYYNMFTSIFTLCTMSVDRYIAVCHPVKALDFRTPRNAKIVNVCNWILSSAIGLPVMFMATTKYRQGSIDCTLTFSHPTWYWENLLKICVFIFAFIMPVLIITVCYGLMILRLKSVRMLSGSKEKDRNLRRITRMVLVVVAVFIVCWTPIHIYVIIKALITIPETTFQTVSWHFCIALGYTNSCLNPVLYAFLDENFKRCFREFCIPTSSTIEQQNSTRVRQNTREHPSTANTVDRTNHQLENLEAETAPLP
Assay: Affinity for mu opioid receptor was measured by displacement of tritiated DAMGO from rat brain membranes
Type: cell membranes, Membrane
Classes by IC50: bin 1 (below 2 nM), bin 2 (2 nM to below 20 nM), bin 3 (20 nM or more)

Look over these answered cases.
MOLECULE	CATEGORY_LABEL
Cc1cc(O)cc(C)c1C[C@H](N)C(=O)N(C)[C@H](C)C(=O)NCCCc1ccccc1	bin 1
Cc1cc(OCc2ccc(C#N)cc2)cc(C)c1CC(N)C(=O)N[C@H](C)C(=O)NCCCc1ccccc1 (stereo partly specified)	bin 3
Cc1cc(O)cc(C)c1C[C@H](N)C(=O)N(CC1CC1)[C@H](C)C(=O)NCCCc1ccccc1 (stereo in doubt; 18b)	bin 1
COc1cc(C)c(C[C@H](N)C(=O)N[C@H](C)C(=O)NCCCc2ccccc2)c(C)c1 (stereo in doubt; 20b)	bin 3
Cc1cc(O)cc(C)c1CC(N)C(=O)N[C@H](C)C(=O)NCCCc1ccccc1 (stereo partly specified)	bin 1

Problem: Textbook exercise: identify the category of the molecule given here, Cc1cc(O)cc(C)c1C[C@H](N)C(=O)N(CC1CC1)[C@H](C)C(=O)NCCCc1ccccc1 (stereo in doubt; 18c) , according to its measured value.
Result: bin 3
